Data origin, for the record: patent US9242970B2

- tested-target: UniProt:O43614
- Sequence (O43614 whole entry): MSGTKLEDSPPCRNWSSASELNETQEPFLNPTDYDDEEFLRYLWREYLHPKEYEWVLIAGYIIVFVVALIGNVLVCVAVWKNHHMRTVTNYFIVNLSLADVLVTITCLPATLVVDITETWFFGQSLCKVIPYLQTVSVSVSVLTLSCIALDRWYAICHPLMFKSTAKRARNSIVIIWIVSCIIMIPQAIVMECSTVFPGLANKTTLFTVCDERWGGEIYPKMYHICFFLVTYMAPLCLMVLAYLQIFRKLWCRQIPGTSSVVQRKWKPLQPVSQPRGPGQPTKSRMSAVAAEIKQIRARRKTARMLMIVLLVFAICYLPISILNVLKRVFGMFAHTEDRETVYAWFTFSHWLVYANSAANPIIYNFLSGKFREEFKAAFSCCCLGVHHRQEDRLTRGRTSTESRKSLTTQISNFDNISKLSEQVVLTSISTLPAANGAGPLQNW
- assay-summary: In vitro assay: intracellular calcium measurements (FLIPR), antagonistic activity
- Format: cell-based
- condition-details: CHO cells, 3 nM orexin-A, compound incubation time of 10 min; marked values are geometric means of n = 2-6; read-out: IC50 OX2
- Experimental: In Vitro Assay: Intracellular Calcium Measurements: […] Fluorescence is measured for each well at 1 second intervals, and the height of each fluorescence peak is compared to the height of the fluorescence peak induced by 3 nM orexin-A with vehicle in place of antagonist. […] The calculated IC50 values may fluctuate depending on the daily cellular assay performance. […]
assay-metric: log10(IC50) (log10 of the value in nM)

molecule="COc1cccc(OC)c1C1CCC(=O)N1Cc1cnc2ccccc2c1 (stereo not drawn)" assay_metric=log10(IC50) experimental_result=1.64
molecule="COc1cccc(OC)c1C1CC(C)C(=O)N1Cc1cc(OC(F)F)ccn1 (stereo not drawn)" assay_metric=log10(IC50) experimental_result=3.10
molecule="COc1cccc(OC)c1C1CCCC(=O)N1Cc1cnc2ccccc2c1 (stereo not drawn)" assay_metric=log10(IC50) experimental_result=2.32
molecule="COc1cccc(OC)c1C1CCCC(=O)N1Cc1ccc2sccc2c1 (stereo not drawn)" assay_metric=log10(IC50) experimental_result=2.15
molecule="O=C1CCCC(c2c(Cl)cccc2Cl)N1Cc1ccc(OC(F)(F)F)cc1 (stereo not drawn)" assay_metric=log10(IC50) experimental_result=2.66
molecule="COc1cccc(OC)c1C1CC(F)(F)C(=O)N1Cc1ccc(OC(F)(F)F)cc1 (stereo not drawn)" assay_metric=log10(IC50) experimental_result=2.12
molecule="COc1cccc(OC)c1C1CCCC(=O)N1Cc1ccc(S(C)(=O)=O)cc1 (stereo not drawn)" assay_metric=log10(IC50) experimental_result=3.23
molecule="COc1cccc(OC)c1C1CC(C)(C)CC(=O)N1Cc1ccc(OC(F)(F)F)cc1 (stereo not drawn)" assay_metric=log10(IC50) experimental_result=3.03
molecule="COc1cccc(OC)c1C1CCC(=O)N1Cc1ccc2ccccc2n1 (stereo not drawn)" assay_metric=log10(IC50) experimental_result=2.13
molecule="COc1cccc(OC)c1C1CCCC(=O)N1Cc1cc2ccccc2o1 (stereo not drawn)" assay_metric=log10(IC50) experimental_result=2.23
molecule="COc1cccc(OC)c1C1CCCC(=O)N1Cc1ccc2c(c1)nnn2C (stereo not drawn)" assay_metric=log10(IC50) experimental_result=2.49
molecule="COc1cc(OC)c(C2CCC(=O)N2Cc2ccc(OC(F)(F)F)cc2)c(OC)c1 (stereo not drawn)" assay_metric=log10(IC50) experimental_result=2.43
molecule="COc1cccc(OC)c1C1CCC(=O)N1Cc1cnc(OC(F)F)c(Cl)c1 (stereo not drawn)" assay_metric=log10(IC50) experimental_result=2.03
molecule="CCC(c1ccc(OC(F)(F)F)cc1)N1C(=O)CCCC1c1c(OC)cccc1OC (stereo not drawn)" assay_metric=log10(IC50) experimental_result=3.75
molecule="COc1cccc(OC)c1C1CN(C)CC(=O)N1Cc1ccc(OC(F)(F)F)cc1 (stereo not drawn)" assay_metric=log10(IC50) experimental_result=2.61
molecule="COc1cccc(OC)c1C1CC(C)C(=O)N1Cc1ccc(OC(F)F)nc1 (stereo not drawn)" assay_metric=log10(IC50) experimental_result=2.79
molecule="COc1cccc(OC)c1C1CCCC(=O)N1Cc1ccccc1-c1ccccc1 (stereo not drawn)" assay_metric=log10(IC50) experimental_result=2.71
molecule="COc1cccc(OC)c1C1CCCC(=O)N1Cc1ccc(C(F)(F)F)cc1 (stereo not drawn)" assay_metric=log10(IC50) experimental_result=2.23
